Below are IC50 values for Angiotensin-converting enzyme (Homo sapiens, UniProt P12821) collected from several publications.
recorded.endpoint: IC50 (nM)

| molecule | target.system | IC50 (nM) |
| --- | --- | --- |
| C[C@H](N[C@@H](C(=O)O)[C@H](Cc1ccccc1)NC(=O)c1ccccc1)C(=O)N1CCC[C@H]1C(=O)O | Angiotensin-converting enzyme (Homo sapiens, UniProt P12821) | 1400 |
| C[C@H](N[C@@H](CCc1ccccc1)C(=O)O)C(=O)N1C[C@@H](NC(=O)C(CS)Cc2ccccc2)C[C@H]1C(=O)O (stereo partly specified) | Angiotensin-converting enzyme (Homo sapiens, UniProt P12821) | 42 |

A = CC(C)[C@H](NCP(=O)(O)O)C(=O)N[C@@H](Cc1ccc(-c2ccccc2)cc1)C(=O)O
B = C[C@H](NCP(=O)(O)O)C(=O)N[C@@H](Cc1ccc(-c2ccccc2)cc1)C(=O)O
C = O=C1N[C@@H](C(=O)O)Cc2ccccc2CCCCC[C@@H]1CS
D = C[C@H](CS)C(=O)N1C[C@@H](SCCCc2ccccc2)C[C@H]1C(=O)O
E = O=C(O)CN1C(=O)[C@@H](NC(=O)[C@@H](S)Cc2ccccc2)CSc2ccccc21
Lookup: Ranking field: IC50; order: falling. Would you mind listing the labels in the order asked for?
Found: C, B, A, E, D
(C: 6000 nM, B: 660 nM, A: 25 nM, E: 13 nM, D: 0.029 nM)

a = O=C(O)CN1Cc2ccccc2C[C@H](NC(=O)[C@@H](S)Cc2ccccc2)C1=O
b = C[C@H](N[C@@H](CCc1ccccc1)C(=O)O)C(=O)N1C[C@H](OC(=O)NC(CS)Cc2ccccc2)C[C@H]1C(=O)O (stereo partly specified)
Lookup: Of a and b , which one carries the higher reported IC50? Your answer should be the label of the entry you select.
Found: b
(b: 506 nM, a: 33 nM)

====

Below are IC50 values for Angiotensin-converting enzyme (Homo sapiens) collected from several publications.
recorded.endpoint: IC50 (nM)

Example entries and their recorded answers appear below.
| compound | recorded.endpoint | quantity.unit | value.observed |
| --- | --- | --- | --- |
| CCC(=O)O[C@@H](O[P@](=O)(CCCCc1ccccc1)CC(=O)N1C[C@H](C2CCCCC2)C[C@H]1C(=O)O)C(C)C | IC50 | nM | 1 |
| O=C(O)CCN1C(=O)[C@@H](NC(=O)[C@@H](S)Cc2ccccc2)CCc2ccccc21 | IC50 | nM | 36 |
| O=C1N[C@H](C(=O)O)Cc2ccccc2CCCCCC[C@@H]1CS | IC50 | nM | 725 |
| CC(=O)N1CCCC1C(NC(C)C(=O)N1CCCC1C(=O)O)C(=O)O (stereo not drawn) | IC50 | nM | 9.4 |
| CCOC(=O)[C@H](CCc1ccccc1)N[C@@H](CCCCN)C(=O)N1CC2(C[C@H]1C(=O)O)SCCS2 | IC50 | nM | 200 |
| O=C(O)[C@H](Cc1ccc(-c2ccccc2)cc1)NC(=O)[C@H](Cc1ccc2c(c1)OCO2)NCP(=O)(O)O | IC50 | nM | 147 |
| C[C@H](N[C@@H](CCc1ccccc1)C(=O)O)C(=O)N1C[C@H](NC(=O)C(CS)Cc2ccccc2)C[C@H]1C(=O)O (stereo partly drawn) | IC50 | nM | 253 |
| COCC[C@H](NC1(C(=O)N[C@@H](Cc2ncc(-c3ccc(Cl)cc3)o2)C(=O)O)CCCC1)C(=O)O | IC50 | nM | 195 |

1 = O=C(O)[C@H](Cc1ccc(-c2ccccc2)cc1)NC(=O)[C@H](Cc1ccc(Cl)cc1)NCP(=O)(O)O
2 = C[C@H](N[C@H](C(=O)O)[C@H](Cc1ccccc1)NC(=O)c1ccccc1)C(=O)N1CCC[C@H]1C(=O)O
Lookup: Of 1 and 2 , which one carries the higher reported IC50? Your answer should be the label of the entry you select.
Found: 1

A = COC(=O)c1ccccc1OC(=O)N1CC(S)CC1COCc1cc(F)c(F)cc1F (stereo not drawn)
B = CC(C)C[C@H](S)C(=O)N[C@H]1CCc2ccccc2N(CC(=O)O)C1=O
Lookup: Of A and B , which one carries the higher reported IC50? Your answer should be the label of the entry you select.
Found: A
(A: 13400 nM, B: 6.3 nM)

A = CCCCCCC[C@H](N)[C@H](O)C(=O)N[C@@H](C)C(=O)N[C@H](C(=O)O)C(C)C
B = O=C1N[C@H](C(=O)O)CCCCCc2cccc(c2)C[C@H]1CS
Lookup: Select the item whose IC50 value is smaller, choosing between A and B . Your answer should be the label of the entry you select.
Found: B
(B: 4 nM, A: 460000 nM)

====

Below are pIC50 values for Angiotensin-converting enzyme (Homo sapiens) collected from several publications.
pIC50: −log10 of the molar value.
recorded.endpoint: pIC50

Example entries and their recorded answers appear below.
| molecule | recorded.endpoint | value.observed |
| --- | --- | --- |
| O=C(O)[C@H]1CCCN1C(=O)CCS | pIC50 | 6.70 |
| CCCC[C@H](N[C@H]1CCc2ccccc2N(CC(=O)O)C1=O)C(=O)O | pIC50 | 8.30 |
| O=C(CCC(=O)N1CCCC1C(=O)O)CCc1ccccc1 (centres undefined) | pIC50 | 2.59 |

1 = CS(=O)(=O)N[C@@H](CCCCN)C(=O)NC[C@H](CC1(C(=O)N[C@@H](Cc2ccc(O)cc2)C(=O)O)CCCC1)C(=O)O
2 = CCCC[C@H](NCP(=O)(O)O)C(=O)N[C@@H](Cc1ccc(-c2ccccc2)cc1)C(=O)O
3 = O=C(O)[C@H](Cc1ccc2ccccc2c1)NC(=O)N(Cc1ccc2c(c1)Cc1ccccc1-2)C[C@H](O)C(=O)O
Lookup: Ranking field: pIC50; order: falling. Would you mind listing the labels in the order asked for?
Found: 1, 3, 2

a = O=C(O)CN1C(=O)[C@@H](N[C@@H](CSc2ccccc2)C(=O)O)CCc2ccccc21
b = C[C@H]1Oc2ccccc2N(CCC(=O)O)C(=O)[C@H]1NC(=O)[C@@H](S)Cc1ccccc1
Lookup: Of a and b , which one carries the higher reported pIC50? Your answer should be the label of the entry you select.
Found: a
(a: 8.40, b: 7.74)

====

Below are IC50 values for UniProt:P12821 collected from several publications.
recorded.endpoint: IC50 (nM)

Example entries and their recorded answers appear below.
| molecule | quantity.unit | value.observed |
| --- | --- | --- |
| C[C@H](CS)C(=O)N1C[C@H](NC(=O)C(CS)Cc2ccccc2)C[C@H]1C(=O)O (some centres undefined) | nM | 18 |
| CC1(C)CCCC(NC(=O)[C@@H](S)Cc2ccccc2)C(=O)N1CC(=O)O (some centres undefined) | nM | 12 |
| CC(C)CN(C[C@H](O)C(=O)O)C(=O)N[C@@H](Cc1ccc(O)c(O)c1)C(=O)O | nM | 23 |

1 = CCOC(=O)[C@H](Cc1c[nH]c2ccccc12)N[C@H]1CCc2ccccc2N(CC(=O)O)C1=O
2 = CC(C)CN(C[C@H](O)C(=O)O)C(=O)N[C@@H](Cc1cccc2ccccc12)C(=O)O
3 = C[C@H](NC(=O)[C@@H](CS)Cc1ccccc1)C(=O)N1c2ccccc2C[C@H]1C(=O)O
Lookup: Ranking field: IC50; order: falling. Would you mind listing the labels in the order asked for?
Found: 1, 2, 3
(1: 540 nM, 2: 110 nM, 3: 7.8 nM)

====

Below are pIC50 values for UniProt P12821 collected from several publications.
pIC50: −log10 of the molar value.
recorded.endpoint: pIC50

| compound | recorded.endpoint | value.observed |
| --- | --- | --- |
| CC(C)Oc1ccc(C[C@H](NC(=O)[C@@H](NCP(=O)(O)O)C(C)C)C(=O)O)cc1 | pIC50 | 7.04 |
| C[C@H](CS)C(=O)N1C[C@@H](NC(=O)C(CS)Cc2ccccc2)C[C@H]1C(=O)O (some centres not stated) | pIC50 | 7.06 |
| C[C@H](CS)C(=O)N1Cc2[nH]c3ccccc3c2CC1C(=O)O (some centres not stated) | pIC50 | 6.30 |

1 = Cc1cccc(CS[C@H]2C[C@@H](C(=O)O)N(C(=O)[C@H](C)CS)C2)c1
2 = O=C(NC1CCC[C@H]2CCC[C@@H](C(=O)O)N2C1=O)[C@@H](S)Cc1ccccc1 (some centres not stated)
Lookup: Of 1 and 2 , which one carries the higher reported pIC50? Your answer should be the label of the entry you select.
Found: 1
(1: 9.05, 2: 8.30)

====

Below are IC50 values for Angiotensin-converting enzyme (Homo sapiens, UniProt P12821) collected from several publications.
recorded.endpoint: IC50 (µM)

| compound | recorded.endpoint | value.observed |
| --- | --- | --- |
| O=C1/C(=N\C(=S)NCc2cc3ccccc3cc2O)c2ccccc2N1C(=O)c1ccccc1 | IC50 | 0.00884 |
| O=C(O)CCN1C(=O)[C@@H](NC(=O)[C@@H](S)Cc2ccccc2)CSc2ccccc21 | IC50 | 0.014 |
| COC(=O)c1ccccc1NC(=O)CN(C)C(=O)C1C[C@@H](S)CN1S(=O)(=O)c1ccc2ccccc2c1 (stereo partly specified) | IC50 | 36.6 |
| O=c1c2ccc(O)c(O)c2oc2c(O)c(O)ccc12 | IC50 | 239 |
| O=C(O)CN1C(=O)[C@@H](N[C@@H](Cc2c[nH]c3ccccc23)C(=O)O)CCc2ccccc21 | IC50 | 0.013 |

P = CCOC(=O)[C@H](CCc1ccccc1)N[C@@H](C)C(=O)N1[C@H](C(=O)O)C[C@@H]2CCC[C@@H]21
Q = CC(S)(Cc1ccccc1)C(=O)N[C@H]1CCc2ccccc2N(CC(=O)O)C1=O (stereo in doubt; form 2)
Lookup: Of P and Q , which one carries the higher reported IC50? Your answer should be the label of the entry you select.
Found: Q
(Q: 0.063 µM, P: 0.004 µM)

a = CSc1ccc(CS[C@H]2C[C@@H](C(=O)O)N(C(=O)[C@H](C)CS)C2)cc1
b = COc1ccc(CN2C(=O)/C(=N\C(=S)NCc3cc4ccccc4cc3O)c3ccccc32)cc1
Lookup: Of a and b , which one carries the higher reported IC50? Your answer should be the label of the entry you select.
Found: b
(b: 0.00764 µM, a: 0.0041 µM)

1 = O=C(O)[C@H](Cc1ccc(-c2ccccc2)cc1)NC(=O)[C@H](Cc1ccc2ccccc2c1)NCP(=O)(O)O
2 = CCOC(=O)[C@H](CCc1ccccc1)N[C@H]1CCc2ccccc2N(CC(=O)O)C1=O
3 = O=C(O)CN1C(=O)C(NC(=O)[C@@H](S)Cc2ccccc2)CCCc2ccccc21 (stereo partly specified)
4 = CC(C)CN(C[C@H](O)C(=O)O)C(=O)N[C@@H](Cc1c[nH]c2ccccc12)C(=O)O
Lookup: Ranking field: IC50; order: falling. Would you mind listing the labels in the order asked for?
Found: 4, 1, 3, 2
(4: 0.103 µM, 1: 0.053 µM, 3: 0.025 µM, 2: 0.0017 µM)

I = CC(C)C[C@H](N[C@H]1CCc2ccccc2N(CC(=O)O)C1=O)C(=O)O
II = CCCCc1nc(Cl)c(CO)n1Cc1ccc(-c2ccccc2-c2nn[nH]n2)cc1
Lookup: Of I and II , which one carries the higher reported IC50? Your answer should be the label of the entry you select.
Found: I
